System: SW-620
assay_protocol: NCI tumour cell line growth inhibition, 48 h
Activity calls are given as the source filed them. Cut-off read from the data, not from the text of the source: active = GI50 up to about 1.1 µM and inactive = higher.
outcome_measure: GI50

The examples below pair each entry with its known result.
[[record]]
compound = "O=c1cc(N2CCOCC2)[nH]c(=O)n1-c1cccc(Cl)c1"
outcome_measure = "GI50"
value_measured = "> 100 µM (inactive)"

[[record]]
compound = "COc1ccc(OC)c(N2CC(N)C2=O)c1 (stereo unspecified)"
outcome_measure = "GI50"
value_measured = "> 100 µM (inactive)"

[[record]]
compound = "C[C@H]1CCC/C=C/[C@@H]2C[C@H](OC3OC(CO)C(O)C(O)C3O)C[C@H]2[C@H](O)/C=C/C(=O)O1 (stereo partly specified)"
outcome_measure = "GI50"
value_measured = "35.9 µM (inactive)"


Below is a list of compounds. For each, state its recorded GI50.
1. CCCCCCCC(=O)OCC1OC(n2cc(F)c(=O)[nH]c2=O)C(NC(=O)OCc2ccccc2)C(OC(=O)CCCCCCC)C1O (stereo unspecified)
2. [N-]=[N+]=Nc1cc(=O)n(-c2ccccc2)c(=O)n1-c1ccccc1
3. CC1OC(OCC2OC(Oc3c(-c4ccc(O)cc4)oc4cc(O)cc(O)c4c3=O)C(OC3OCC(O)(CO)C3O)C(O)C2O)C(O)C(O)C1O (stereo unspecified)

1. 35 µM (inactive)
2. > 100 µM (inactive)
3. 79.1 µM (inactive)
